src = paper PMC9749936

Tested on: A. baumannii ATCC 17961
Format: cell-based, Acinetobacter baumannii
assayConditions: ATCC 17961, 18 h
Bridge positions count the residues as written; N and C are the ends. Square brackets hold non-standard residues; d marks the D form. Peptide text beside a SMILES is read from it. * marks the point of attachment. dOrn = NCCC[C@@H](N)C(=O)O; Orn = NCCC[C@H](N)C(=O)O; Hexanoyl = CCCCCC(=O)*
quantityKind: Antimicrobial activity (MIC) A. baumannii ATCC 17961 (µg/mL)
Expressed in µg/mL, but write only the number.

Exam item: Given the entry CCCCCC(=O)N[C@H](CC(N)=O)C(=O)N[C@H](Cc1ccc(O)cc1)C(=O)N[C@H](Cc1c[nH]c2ccccc12)C(=O)N[C@H](CCCN)C(=O)N[C@@H](CCCN)C(=O)NCC(=O)N[C@H](CCCN)C(=O)N[C@@H](Cc1c[nH]c2ccccc12)C(=O)N[C@@H]1C(=O)N[C@@H]([C@@H](C)CC)C(=O)NCC(=O)N[C@@H](CO)C(=O)O[C@@H]1C [Compound 12] (Hexanoyl-[dN][dY][dW][dOrn][Orn]G[dOrn]WTIGS; ester 9-C) , report its measured Antimicrobial activity (MIC) A. baumannii ATCC 17961.
Marked response: 16
